Where do these numbers come from? They come from ChEMBL document CHEMBL5579862.

Items are presented alongside their recorded MIC.
# Tested on: Salmonella typhimurium
# ASSAY_TEXT: Antibacterial activity against Salmonella typhimurium ATCC 14028
# Format: functional, Salmonella enterica subsp. enterica serovar Typhimurium
# CONDITION_SUMMARY: Salmonella enterica
# number only, unit µg/mL dropped from output

COc1ccc2ncc(F)c(CCN3CCC(/C=C/c4ccc5c(c4)OCCO5)CC3)c2n1 64
COc1ccc2ncc(F)c(CCN3CCC(NCc4ccc(C)cc4)CC3)c2n1 32
O=c1ccc2ncc(=O)n3c2n1C[C@H]3CN1CCC(NCc2cc3c(cn2)OCCC3)CC1 2
COc1ccc2ncc(F)c(CCN3CCC(C(=O)Cc4ccc5c(c4)NC(=O)CO5)CC3)c2n1 16

Then this compound:
Request the reported MIC associated with COc1ccc2ncc(F)c(CCN3CCC(/C=C/c4ccc5c(c4)NC(=O)CO5)CC3)c2n1
16
